From: paper PMC12396409

- Tested on: P. falciparum 3D7 parasites
- experiment: P. falciparum growth inhibition assay, 2-cycle (120 h treatment), delayed-death screen and dose-response
- Assay type: cell-based, Plasmodium falciparum
- condition_context: P. falciparum, 120 h, parasite screen 2 μg/mL, % growth, replicate 2
*1 amine or outer side, *2 acyl side, *3 side chain or, on linkers, in order; H or OH if unused. Where a SMILES comes first, the peptide text is derived from it. Bridges are numbered along the chain shown (N, C = ends). [ ]: non-standard residue; d: D form. The star is where a group is joined. Orn(4R-OH,5R-OH) = O=C([C@H](C[C@@H](O)[C@@H](O)N[*:3])N[*:1])[*:2]; Tetradecanoyl(10R,12S-Me2) = CC[C@H](C)C[C@H](C)CCCCCCCCC(=O)*; hTyr(3S-OH,4S-OH) = N[C@H](C(=O)O)[C@H](O)[C@@H](O)c1ccc(O)cc1; Gln(3R-OH) = NC(=O)C[C@@H](O)[C@H](N)C(=O)O; Pro(3S-OH) = O=C(O)[C@H]1NCC[C@@H]1O; Hyp = O=C(O)[C@@H]1C[C@@H](O)CN1
measurement_label: Pf_120h_%Growth_Rep2 (%)
Please reply with the bare figure in % and do not write the unit itself.

Answered cases to consult:
molecule="CC[C@H](C)C[C@H](C)CCCCCCCCC(=O)N[C@H]1C[C@@H](O)[C@@H](O)NC(=O)[C@@H]2[C@@H](O)CCN2C(=O)[C@H]([C@H](O)CC(N)=O)NC(=O)[C@H]([C@H](O)[C@@H](O)c2ccc(O)cc2)NC(=O)[C@@H]2C[C@@H](O)CN2C(=O)[C@H]([C@@H](C)O)NC1=O [Pneumocandin B0] ({Tetradecanoyl(10R,12S-Me2)}-[Orn(4R-OH,5R-OH)]T[Hyp][hTyr(3S-OH,4S-OH)][Gln(3R-OH)][Pro(3S-OH)]; lactam 1-C)" measurement_label=Pf_120h_%Growth_Rep2 unit_descriptor=% recorded_result=136.49
molecule=CCCCC[C@@]1(OC(=O)CCC(=O)O)CC[C@]2(CC[C@H](C)[C@@H](C/C=C(C)/C=C/[C@H](O)[C@@H](C)/C=C/C(=O)O)O2)O[C@H]1/C=C/C(C)=C/C(=O)O measurement_label=Pf_120h_%Growth_Rep2 unit_descriptor=% recorded_result=15.46
molecule=CC(=O)O[C@@H]1CC[C@@]2(C)[C@@H](CC[C@@H](C)[C@]23Cc2c(O)cc(CO)c(C=O)c2O3)C1(C)C measurement_label=Pf_120h_%Growth_Rep2 unit_descriptor=% recorded_result=88.10
molecule="Cc1cc(O)c2c(c1)C(=O)C13C(=C2O)C(=O)C2C(O)C1C1C(O)C3C(=O)C3=C(O)c4c(O)cc(C)cc4C(=O)C321 (centres unmarked) [Rugulosin - form]" measurement_label=Pf_120h_%Growth_Rep2 unit_descriptor=% recorded_result=8.22

Then this molecule:
Input: For the molecule CC[C@H](C)[C@H]1NC(=O)c2c1n(C)c1ccccc1c2=O , give its reported Pf_120h_%Growth_Rep2.
Output: -10.01
